- procedure details: NOVARTIS: Cytotoxicity against human hepatocellular carcinoma cell line (Huh7)
- Assay type: toxicity, cell-based, Huh-7
- test settings: Huh7 cells (hepatocellular carcinoma cell line)
The reader will find reported CC50 values listed item by item below.

Example results:
Query block: CC50 for CON(C)C(=O)c1cccc2ccccc12 ?
Result block: > 10 µM

Query block: CC50 for CCN1CCN(c2cc(C)c3cc(NC(=O)c4cncc(Br)c4)ccc3n2)CC1 ?
Result block: 19.4 µM

Others:
Query block: CC50 for c1ccc(-c2c3c(cc4ccccc24)C[N+]2(CCCC2)C3)cc1 ?
Result block: > 100 µM

Query block: CC50 for CCCCCNC(=O)C1CSC(c2ccoc2)N1C(=O)c1ccccc1Cl (stereo not drawn) ?
Result block: > 100 µM

Query block: CC50 for O=C(NN=Cc1ccncc1)c1cc(-c2cccc([N+](=O)[O-])c2)[nH]n1 ?
Result block: > 100 µM

Query block: CC50 for FC(F)(F)c1cccc(-c2cncc(N3CCN(c4ccccn4)CC3)n2)c1 ?
Result block: 45.7 µM

Query block: CC50 for CCOC(=O)c1c(NC(=O)Cc2ccc([N+](=O)[O-])cc2)sc2c1CCCC2 ?
Result block: > 10 µM

Query block: CC50 for C#CCNC(=O)c1ccc(OC2CCN(CC3CCCCC3)CC2)c(Cl)c1 ?
Result block: > 100 µM

Query block: CC50 for O=C(Nc1ccc(N2CCCCC2)cc1)c1cc2ccccc2o1 ?
Result block: > 3.66 µM

Query block: CC50 for CC(C)(C)CC(C)(C)Nc1c(-c2ccccc2OC(=O)c2ccc(Cl)cc2Cl)nc2ccccn12 ?
Result block: > 10 µM

Query block: CC50 for Cc1cccc(NC(c2ccccc2F)c2ccc3cccnc3c2O)n1 (stereo not drawn) ?
Result block: > 61.8 µM

Query block: CC50 for CN1C=CC=C/C1=C\C=C1\C=Nc2ccccc21 ?
Result block: > 10 µM

Query block: CC50 for CCOc1ccc(N(CC)S(=O)(=O)c2cc(Br)cc3c2N(C(C)=O)CC3)cc1 ?
Result block: > 100 µM

Query block: CC50 for CCC(Nc1ccc(OC)cc1)=C1C(=O)CC(C)(C)CC1=O ?
Result block: > 100 µM

Query block: CC50 for CC(C)CC(N)C(=O)N1CCn2c(nc(-c3ccccc3)c2Nc2ccc3c(c2)OCO3)C1 (stereo not drawn) ?
Result block: > 79.5 µM

Query block: CC50 for CCCCN(CCCC)S(=O)(=O)c1nc(C)c(Cl)c(C)c1C#N ?
Result block: > 100 µM

Query block: CC50 for C=CCSc1ncc(-c2ccc(Cl)cc2)n1C ?
Result block: > 100 µM

Query block: CC50 for O=[N+]([O-])c1ccc(C=NNc2nc3ccccc3[nH]2)cc1 ?
Result block: > 100 µM

Query block: CC50 for Cc1ccc(NC(c2ccccc2)(c2ccccc2)c2ccccc2)cc1C ?
Result block: > 100 µM

Query block: CC50 for N#Cc1ccc(NC(=O)c2cc(Cl)ccc2O)cc1 ?
Result block: > 10 µM

----------
- Tested on: Plasmodium falciparum
- procedure details: NOVARTIS: Inhibition of Plasmodium falciparum W2 (drug-resistant) proliferation in erythrocyte-based infection assay
- Assay type: functional, organism-based
- test settings: Plasmodium falciparum, W2; read-out: EC50
outcome measure: log10 EC50 (log10 of the value in nM)
Please keep in mind that the values are log10 of EC50 expressed in nM.

Example results:
Query block: log10 EC50 for COc1cccc(Cn2c(C)nc3cc(NC(=O)Nc4ccccc4)c(C)nc32)c1 ?
Result block: 2.21

Query block: log10 EC50 for O=C(c1cc2n(n1)C(C(F)(F)F)CC(c1ccc3c(c1)OCO3)N2)N1CCN(C(c2ccccc2)c2ccccc2)CC1 (configuration not stated) ?
Result block: 3.20

Query block: log10 EC50 for CCOc1ccc2nc3ccc([N+](=O)[O-])cc3c(NC)c2c1 ?
Result block: 2.73

Query block: log10 EC50 for CCN(C(=O)Cn1c(=O)oc2ccccc21)c1ccc(F)cc1 ?
Result block: 3.36

Query block: log10 EC50 for COc1ccc(OC)c(NC(=O)COc2cc3ccccc3cc2C(=O)Nc2cc(OC)c(Cl)cc2OC)c1 ?
Result block: 2.89

Others:
Query block: log10 EC50 for COc1cc(C(=O)NC2CC3CCC(C2)N3C2CC2)cc(OC)c1OC (configuration not stated) ?
Result block: 2.69

----------
The reader will find reported CC50 values listed item by item below.
- procedure details: NOVARTIS: Cytotoxicity against human hepatocellular carcinoma cell line (Huh7)
- Assay type: toxicity, cell-based, Huh-7
- test settings: Huh7 cells (hepatocellular carcinoma cell line)
# output: bare number, implied unit µM

Query block: CC50 for CCN1CCN(C(=O)Nc2ccc(Cc3ccc(NC(=O)N4CCN(CC)CC4)cc3)cc2)CC1 ?
Result block: 62

# context switch: different compound, same CC50
Query block: CC50 for COc1ccc([N+](=O)[O-])cc1NC(=O)C(C)Nc1ccc(N(C)C)cc1 (stereo not given) ?
Result block: 34.2

----------
- Tested on: Plasmodium falciparum
- procedure details: NOVARTIS: Inhibition of Plasmodium falciparum 3D7 (drug-susceptible) proliferation in erythrocyte-based infection assay
- Assay type: functional, organism-based
- test settings: Plasmodium falciparum, 3D7
Classification scheme (EC50): bottom end (below 400 nM), midrange (400 nM to below 1000 nM), top end (1000 nM or more)

Completed entries (count: 10):
Query block: GET /class?item= CCOC(=O)C1=C(C)NC2=C(C(=O)C(C(=O)OCC)C(c3ccccc3OC)C2)C1c1cc(OC)c(OC)c(OC)c1 (configuration not stated)
Result block: top end

Query block: GET /class?item= C=CCC1(Nc2ccccc2)CCCCC1
Result block: top end

Query block: GET /class?item= N#CCCN(CC1CCCO1)C(=O)Nc1ccc(Cl)c(C(F)(F)F)c1 (configuration not stated)
Result block: top end

Query block: GET /class?item= CCCCN(CCCC)CCCNc1ncnc2c1[nH]c1ccc(C)cc12
Result block: bottom end

Query block: GET /class?item= CCCCCCN(C(=O)COCc1ccccc1)C(C)c1nc2ccccc2c(=O)n1-c1cccc(Cl)c1C (configuration not stated)
Result block: top end

Query block: GET /class?item= CCc1ccc2[nH]c(=O)c(CN(CCN(C)C)C(=S)NCCCN(C)C)cc2c1
Result block: top end

Query block: GET /class?item= CC(C)CCNCC(O)Cn1c2ccc(Cl)cc2c2cc(Cl)ccc21 (configuration not stated)
Result block: bottom end

Query block: GET /class?item= O=C(ON(C(=O)c1ccc(F)cc1)C1C2CC3CC(C2)CC1C3)c1ccc(F)cc1 (configuration not stated)
Result block: top end

Query block: GET /class?item= CCOC(=O)C[n+]1cc(CC)sc1N
Result block: top end

Query block: GET /class?item= CCOc1cc(C2CC(=O)NC3=C2C(=O)CC(C)(C)C3)ccc1OC(C)C (configuration not stated)
Result block: bottom end

Others:
Query block: GET /class?item= Cc1ccc(NC(=O)c2c(I)cnn2C)cc1[N+](=O)[O-]
Result block: bottom end

Query block: GET /class?item= Clc1ncnc2ncn(Cc3ccccc3)c12
Result block: top end

Query block: GET /class?item= CCN1CCN(c2cc(C)c3cc(NC(=O)/C=C/c4cccc(Cl)c4)ccc3n2)CC1
Result block: midrange

Query block: GET /class?item= CCOCCCN(C(=O)C(F)(F)F)C(C(=O)NC1CCCCC1)c1ccncc1 (configuration not stated)
Result block: top end

Query block: GET /class?item= Cc1c(C#N)c2ccccc2n1CC(=O)Nc1ccc(Br)cc1
Result block: midrange

Query block: GET /class?item= CCCCN(CCCC)CC(O)c1cc(-c2ccc(Cl)cc2)nc2cc(Cl)ccc12 (configuration not stated)
Result block: bottom end

----------
- procedure details: NOVARTIS: Cytotoxicity against human hepatocellular carcinoma cell line (Huh7)
- Format: toxicity, cell-based, Huh-7
- test settings: Huh7 cells (hepatocellular carcinoma cell line)
outcome measure: CC50

Example results:
Query block: CC50 for CCCCCc1cc(O)c2c3c(c(=O)oc2c1)CN(C)CC3 ?
Result block: > 96.8 µM

Query block: CC50 for O=S(=O)(NC1=CC2C(=Nc3ccc(NS(=O)(=O)c4ccc(Br)cc4)cc3N2c2ccccc2)C=C1)c1ccc(Br)cc1 (configuration not stated) ?
Result block: > 10 µM

Others:
Query block: CC50 for CCNc1nc(NC(C)(C)C)nc(N2CCCC2)n1 ?
Result block: > 100 µM

----------
- procedure details: NOVARTIS: Cytotoxicity against human hepatocellular carcinoma cell line (Huh7)
- Format: toxicity, cell-based, Huh-7
- test settings: Huh7 cells (hepatocellular carcinoma cell line)
outcome measure: CC50

Example results:
Query block: CC50 for CCOC(=O)C1=C(C)N=c2sc(=Cc3cc(Cl)ccc3O)c(=O)n2C1c1ccc2c(c1)OCO2 (stereo unspecified) ?
Result block: > 100 µM

Query block: CC50 for COc1ccc(C2CC(=O)C3=C(C2)NC(C)=C(C(=O)OC2CCCC2)C3c2ccc(Cl)cc2)cc1 (stereo unspecified) ?
Result block: > 100 µM

Others:
Query block: CC50 for Cc1cc(/C=C2/SC(=Nc3ccccc3)NC2=O)c(C)n1-c1cccc([N+](=O)[O-])c1 ?
Result block: > 10 µM
